Reference source: ChEMBL document CHEMBL1961873

- TARGET UNDER TEST: Casein kinase I isoform gamma-1 (Homo sapiens) (UniProt Q9HCP0);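 note: reported value is the mean inhibition of CK1 gamma-1 kinase activity across replicate measurements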
- Sequence (Q9HCP0 whole entry, looked up, canonical isoform): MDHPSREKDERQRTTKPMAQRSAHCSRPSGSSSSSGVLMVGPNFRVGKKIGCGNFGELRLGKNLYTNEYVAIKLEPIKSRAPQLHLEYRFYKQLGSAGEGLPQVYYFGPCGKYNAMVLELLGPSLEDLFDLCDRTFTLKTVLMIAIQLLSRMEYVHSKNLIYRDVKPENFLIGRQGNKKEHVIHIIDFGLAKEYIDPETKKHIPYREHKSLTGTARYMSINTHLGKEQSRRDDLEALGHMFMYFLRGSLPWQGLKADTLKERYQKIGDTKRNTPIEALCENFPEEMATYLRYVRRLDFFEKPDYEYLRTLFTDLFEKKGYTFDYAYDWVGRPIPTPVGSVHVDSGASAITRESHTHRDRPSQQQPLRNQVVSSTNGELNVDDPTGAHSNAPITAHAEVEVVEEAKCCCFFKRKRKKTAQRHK
- CONDITION SET: at 1 µM
Hi, to clarify the labels: TRUE covers inhibition from 4% upward, FALSE covers anything below 4%.

COMPOUND	TARGET UNDER TEST	CAT
CS(=O)(=O)CCNCc1ccoc1-c1ccc2ncnc(Nc3ccc(OCc4ccccc4)cc3)c2c1	Casein kinase I isoform gamma-1 (Homo sapiens) (UniProt Q9HCP0)	FALSE
CC(C)c1ccc(-c2cc(-c3c[nH]nc3-c3ccccn3)ccn2)cc1	Casein kinase I isoform gamma-1 (Homo sapiens) (UniProt Q9HCP0)	FALSE
CC1=C(C(=O)Nc2ccc3[nH]nc(C)c3c2)C(c2ccc(C(F)(F)F)cc2)CC(=O)N1 (stereo not given)	Casein kinase I isoform gamma-1 (Homo sapiens) (UniProt Q9HCP0)	FALSE
CNC(=O)c1sc(-n2cnc3cc(OC)c(OC)cc32)cc1OCc1ccccc1C(F)(F)F	Casein kinase I isoform gamma-1 (Homo sapiens) (UniProt Q9HCP0)	FALSE
COc1cc(Nc2ncc(-c3ccccc3)o2)cc(OC)c1	Casein kinase I isoform gamma-1 (Homo sapiens) (UniProt Q9HCP0)	TRUE

* * *

- TARGET UNDER TEST: Cyclin-dependent kinase 2 (Homo sapiens) (UniProt P24941);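 note: mean inhibition of CDK2 in complex with cyclin E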
- CONDITION SET: at 0.1 µM
Hi, to clarify the labels: YES covers inhibition from 3% upward, NO covers anything below 3%.

MOLECULE	TARGET UNDER TEST	CAT
CS(=O)(=O)Nc1ccc(-c2cc(-c3ccccc3)cc(C(N)=O)c2N)cc1	Cyclin-dependent kinase 2 (Homo sapiens) (UniProt P24941)	NO
CCCNc1cccc(-n2ncc3c(N/N=C/c4ccncc4)ncnc32)c1	Cyclin-dependent kinase 2 (Homo sapiens) (UniProt P24941)	NO
CC1=C(C(=O)Nc2ccc3[nH]ncc3c2)C(c2ccc(F)cc2)N=C(c2ccc(C(F)(F)F)nc2)N1 (stereo not given)	Cyclin-dependent kinase 2 (Homo sapiens) (UniProt P24941)	NO
CC1=C(C(=O)Nc2ccc3[nH]nc(C)c3c2)C(c2ccc(C(F)(F)F)cc2)CC(=O)N1 (stereo not given)	Cyclin-dependent kinase 2 (Homo sapiens) (UniProt P24941)	NO
N#Cc1cccc(Nc2ncc(-c3ccccc3)o2)c1	Cyclin-dependent kinase 2 (Homo sapiens) (UniProt P24941)	YES
CNC(=O)c1ncccc1Nc1nc(Nc2cc3c(cc2OC)CCCN3C(=O)CN(C)C)nc2[nH]ccc12	Cyclin-dependent kinase 2 (Homo sapiens) (UniProt P24941)	YES
Cc1ccc(-c2cc3c(NC(=O)C4CC4)ncnc3o2)cc1	Cyclin-dependent kinase 2 (Homo sapiens) (UniProt P24941)	YES
CNC(=O)c1cncc(/C=C/c2ccccc2C)c1	Cyclin-dependent kinase 2 (Homo sapiens) (UniProt P24941)	YES
c1ccc(-c2n[nH]cc2-c2ccnc(-c3ccc(OCCn4ccnc4)cc3)c2)nc1	Cyclin-dependent kinase 2 (Homo sapiens) (UniProt P24941)	NO
COc1cc(Nc2ncc(-c3ccccc3)o2)cc(OC)c1	Cyclin-dependent kinase 2 (Homo sapiens) (UniProt P24941)	YES

* * *

- TARGET UNDER TEST: Inhibitor of nuclear factor kappa-B kinase subunit beta (Homo sapiens) (UniProt O14920);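 note: values are mean percent inhibition of IKKB, part of the GSK PKIS screening data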
- Sequence (O14920 whole entry): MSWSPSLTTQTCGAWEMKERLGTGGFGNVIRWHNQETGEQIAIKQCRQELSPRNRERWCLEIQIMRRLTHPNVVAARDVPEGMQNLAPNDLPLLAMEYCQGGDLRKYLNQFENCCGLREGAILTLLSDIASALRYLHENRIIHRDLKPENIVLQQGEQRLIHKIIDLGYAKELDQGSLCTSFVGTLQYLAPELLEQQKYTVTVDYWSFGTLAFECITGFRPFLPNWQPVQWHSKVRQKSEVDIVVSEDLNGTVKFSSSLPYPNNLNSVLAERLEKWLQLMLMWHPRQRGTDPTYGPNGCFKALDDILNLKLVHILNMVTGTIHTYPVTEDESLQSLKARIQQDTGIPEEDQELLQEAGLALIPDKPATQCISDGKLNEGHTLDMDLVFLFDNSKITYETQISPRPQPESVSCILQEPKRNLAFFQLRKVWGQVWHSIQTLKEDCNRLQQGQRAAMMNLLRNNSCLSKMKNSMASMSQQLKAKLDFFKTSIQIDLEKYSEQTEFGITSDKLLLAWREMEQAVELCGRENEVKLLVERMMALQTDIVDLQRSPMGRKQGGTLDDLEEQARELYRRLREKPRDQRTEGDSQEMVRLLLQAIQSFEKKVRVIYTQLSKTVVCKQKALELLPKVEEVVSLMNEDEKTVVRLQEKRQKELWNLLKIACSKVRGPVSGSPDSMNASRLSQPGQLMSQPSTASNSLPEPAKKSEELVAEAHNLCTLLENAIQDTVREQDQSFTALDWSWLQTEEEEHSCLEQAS
- CONDITION SET: at 0.1 µM

MOLECULE	inhibition, %
c1cnn2ncc(-c3ccnc(NCCCN4CCOCC4)n3)c2c1	5.79
CN(C)CCNC(=O)Nc1ccc(N(C)c2ccnc(Nc3ccc(CS(C)(=O)=O)cc3)n2)cc1	7.67
Fc1ccc(Nc2nccc(-c3c(-c4ccc(C(F)(F)F)cc4)nn4ncccc34)n2)cc1F	5.58
COc1c(C(N)=O)cc(-c2ccc(Cl)cc2)cc1-c1ccc(S(N)(=O)=O)cc1	6.58
CCOc1ccc2c(-c3ccnc(Nc4cc(OC)cc(C(F)(F)F)c4)n3)cnn2n1	-0.06
NC(=O)c1ccc2c(-c3ccnc(NCCCO)n3)c(-c3ccc(F)cc3)nn2c1	7.11
COc1ccccc1-c1cc(/C=C2\C(=O)Nc3ncc(Br)cc32)cc(Br)c1O	5.58
COc1cc2c(cc1Nc1nc(Nc3cccc(F)c3C(N)=O)c3cc[nH]c3n1)N(C(=O)CN1CCN(C(C)C)CC1)CC2	5.51
COc1ccc(-c2nn3ncccc3c2-c2ccnc(Nc3ccc(F)c(F)c3)n2)cc1	4.66
COc1cc(N2CCN(C(C)C)CC2)ccc1Nc1nc(Nc2cccc3ncccc23)c2cc[nH]c2n1	1.05
O=C(O[C@H]1CN[C@H](C#Cc2cc3ncnc(Nc4ccc(OCc5cccc(F)c5)c(Cl)c4)c3s2)C1)N1CCOCC1	8.43
Cn1c(-c2nonc2N)nc2cnccc21	5.29
CNC(=O)c1sc(-n2cnc3cc(OC)c(OC)cc32)cc1OCc1ccccc1C(F)(F)F	4.41
CC1=C(C(=O)Nc2ccc3[nH]ncc3c2)C(c2ccc(F)cc2)N=C(c2ccc(C(F)(F)F)nc2)N1 (stereo not given)	2.1
O=C(Nc1n[nH]c2nnc(-c3cccnc3)cc12)C1CC1	1.55
CCCNc1cccc(-n2ncc3c(N/N=C/c4ccncc4)ncnc32)c1	0.62
COC(=O)Nc1nc2cc(Oc3ccc(NC(=O)Nc4ccccc4)cc3)ccc2[nH]1	4.21
CNC(=O)c1cncc(/C=C/c2ccccc2C)c1	3.58
CS(=O)(=O)Nc1ccc(-c2cc(-c3ccccc3)cc(C(N)=O)c2N)cc1	6.82
CN(c1ccc(NC(=O)NCCN2CCOCC2)cc1)c1ccnc(Nc2ccc(CS(C)(=O)=O)cc2)n1	3.48
O=C(O[C@H]1CN[C@H](C#Cc2cc3ncnc(Nc4ccc5c(ccn5Cc5cc(F)ccc5F)c4)c3s2)C1)N1CCOCC1	7.42
CS(=O)(=O)CCNCc1ccc(-c2ccc3ncnc(Nc4ccc(OCc5cccc(C(F)(F)F)c5)cc4)c3c2)o1	4.47
N#Cc1cccc(Nc2ncc(-c3ccccc3)o2)c1	3.29
c1ccc(-c2n[nH]cc2-c2ccnc(-c3ccc(OCCn4ccnc4)cc3)c2)nc1	0.37
CN1CCC(n2cnc(-c3ccc(F)cc3)c2-c2ccnc(NCCO)n2)CC1	5.84
NS(=O)(=O)c1ccc(N/N=C2\C(=O)Nc3cccc(CCc4ccncc4)c32)cc1	0.73
COc1cccc(-n2ncc3c(N/N=C/c4ccc(C(=O)NCCN(C)C)cc4)ncnc32)c1	1.09
O=C(O[C@H]1CN[C@H](C#Cc2cc3ncnc(Nc4ccc5c(cnn5Cc5ccccc5)c4)c3s2)C1)N1CCOCC1	-1.3
CCS(=O)(=O)c1ccc(OC)c(Nc2ncc(-c3cccc(F)c3)o2)c1	6.88
CCN1CCC(C(=O)Nc2n[nH]c3nnc(-c4cccc(F)c4F)cc23)CC1	-4.76
NS(=O)(=O)c1cccc(N/C=C2\C(=O)Nc3ccccc32)c1	6.37
CCS(=O)(=O)c1ccc(OC)c(Nc2ncc(-c3cccc(C(C)=O)c3)o2)c1	5.35
Cc1ccc(-c2cc3c(NC(=O)C4CC4)ncnc3o2)cc1	2.98
Cc1cc(O)cc(C)c1/C=C/c1cncc(C(N)=O)c1	1.7
COc1ccc2ncn(-c3cc(O[C@H](C)c4ccccc4C(F)(F)F)c(C(N)=O)s3)c2c1	-5.7
